- SYSTEM_TESTED: FLT3 (Homo sapiens, UniProt P36888)
- Sequence (P36888 27-993): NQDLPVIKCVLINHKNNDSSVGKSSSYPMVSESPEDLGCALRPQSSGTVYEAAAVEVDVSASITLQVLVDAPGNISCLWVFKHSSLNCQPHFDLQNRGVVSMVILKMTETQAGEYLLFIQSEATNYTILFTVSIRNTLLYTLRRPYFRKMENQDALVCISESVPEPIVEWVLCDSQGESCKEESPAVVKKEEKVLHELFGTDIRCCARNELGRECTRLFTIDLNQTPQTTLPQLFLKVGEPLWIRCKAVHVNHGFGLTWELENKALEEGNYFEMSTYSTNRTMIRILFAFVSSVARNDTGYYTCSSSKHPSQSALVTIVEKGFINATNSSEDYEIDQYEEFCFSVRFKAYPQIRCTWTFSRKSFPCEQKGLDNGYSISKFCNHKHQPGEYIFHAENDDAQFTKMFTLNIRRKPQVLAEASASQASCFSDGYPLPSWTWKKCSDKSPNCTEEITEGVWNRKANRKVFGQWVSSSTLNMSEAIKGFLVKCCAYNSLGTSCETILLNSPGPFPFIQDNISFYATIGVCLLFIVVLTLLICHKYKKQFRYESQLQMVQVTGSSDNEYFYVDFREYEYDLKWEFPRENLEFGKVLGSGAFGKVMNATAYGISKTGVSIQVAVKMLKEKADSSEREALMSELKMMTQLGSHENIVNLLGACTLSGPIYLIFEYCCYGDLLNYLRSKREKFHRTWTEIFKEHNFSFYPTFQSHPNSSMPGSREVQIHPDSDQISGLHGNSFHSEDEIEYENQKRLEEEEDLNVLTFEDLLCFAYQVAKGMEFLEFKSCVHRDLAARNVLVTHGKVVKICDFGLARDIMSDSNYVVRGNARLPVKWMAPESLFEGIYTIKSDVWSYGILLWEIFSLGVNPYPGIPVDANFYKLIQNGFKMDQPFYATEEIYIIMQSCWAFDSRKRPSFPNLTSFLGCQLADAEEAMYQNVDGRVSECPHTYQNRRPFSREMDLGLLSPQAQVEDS
pIC50: −log10 of the molar value.
Assignment: determine reported pIC50 for the given molecules.

- CC[C@H](C)Nc1ncc2c(O[C@H]3CC[C@](C)(O)CC3)ncc([C@H]3CC[C@H](O)CC3)c2n1 [Compound 287]: 6.00 to 7.00
- CCOc1ncc(CC2CCNCC2)c2nc(N[C@@H](C)CC)ncc12 [Compound 236]: 6.00 to 7.00
- CCOc1ncc([C@H]2CC[C@H](O)CC2)c2nc(N[C@@H](C)CC(F)(F)F)ncc12 [Compound 359]: 6.00 to 7.00
- CCCC(C)Nc1ncc2c(N(C)C3CCN(C)CC3)ncc([C@H]3CC[C@H](O)CC3)c2n1 (some centres unmarked) [Compound 146]: 5.00 to 6.00
- CC(C)Nc1ncc2c(OC3CCNCC3)ncc([C@H]3CC[C@H](O)CC3)c2n1 [Compound 135]: 5.00 to 6.00

Please look at the items below and tell me pIC50 for each one, in order.
1. CC[C@H](C)Nc1ncc2c(O[C@H]3CC[C@H](O)CC3)ncc([C@H]3CC[C@H](O)CC3)c2n1 [Compound 229]
2. CC[C@H](C)Nc1ncc2c(N3CC[C@@H](N(C)C)C3)ncc([C@H]3CC[C@H](O)CC3)c2n1 [Compound 222]
3. CCCCNc1ncc2c(NC3CCN(C)CC3)ncc([C@H]3CC[C@H](O)CC3)c2n1 [Compound 114]
4. CCC[C@@H](C)Nc1ncc2c(OC3CCN(C)CC3)ncc([C@H]3CC[C@H](O)CC3)c2n1 [Compound 208]
5. CCCCNc1ncc2c(=O)n(Cc3ccc(F)cc3)cc([C@H]3CC[C@H](O)CC3)c2n1 [Compound 105]
6. CC1(C)CC(Nc2ncc3c(OC4CCOCC4)ncc([C@H]4CC[C@H](O)CC4)c3n2)C1 [Compound 144]

1. 6.00 to 7.00
2. 5.00 to 6.00
3. ≥ 7.00
4. 6.00 to 7.00
5. 6.00 to 7.00
6. ≥ 7.00

The reported measurements were obtained from patent US20200291018A1.
